Molecular target: Src tyrosine kinase
Experiment: cell-based or functional assay
Where no end group is shown, it is not given here. [ ]: non-standard residue; d: D form. Phe(NH2) = aminophenylalanine; Phe(NO2) = nitrophenylalanine; Phe(CN) = cyanophenylalanine; Phe(N3) = azidophenylalanine
Listed next: entries and their corresponding IC50, inhibitory potency (Src kinase assay, polyE4Y phosphorylation).
The answer is to be given in µM; state only the numeric part.

// worked examples, IC50, inhibitory potency (Src kinase assay, polyE4Y phosphorylation) included
Ac-CI[Phe(NH2)]KYY [Ac-CIF(NH2)KYY (67)]: 760
Ac-CIYK[Phe(CN)]Y [Ac-CIYKF(CN)Y (78)]: 6
Ac-CI[Phe(NO2)]KYY [Ac-CIF(NO2)KYY (64)]: 1.5

Input: Looking for the measured IC50, inhibitory potency (Src kinase assay, polyE4Y phosphorylation) of Ac-CIYKY[Phe(NO2)] [Ac-CIYKYF(NO2) (66)] , can you help?
Output: 10.8

Input: Try the binder Ac-CIYK[Phe(N3)]Y [Ac-CIYKF(N3)Y (79)]
Output: 2

Input: // same read-out, input: CIYK[Phe(NO2)]Y [CIYKF(NO2)Y (77)]
Output: 3
